assayName: lipophilicity log D at pH 7.4
Type: physicochemical
measurementSetup: octanol/water
measurementLabel: chromatographic logD
// print number alone

Consider COC(=O)c1c[nH]c2cc(CN3CCN(Cc4ccc5c(c4)OCO5)CC3)ccc2c1=O . Its measured chromatographic logD is 0.87

Consider COC(=O)c1c[nH]c2ccc(CN3CCN(c4ccc(OC)cc4)CC3)cc2c1=O . Its measured chromatographic logD is 1.91

Consider COC(=O)c1c[nH]c2cc(CN3CCN(c4ccccc4)CC3)c(OC)cc2c1=O . Its measured chromatographic logD is 1.32

Consider COC(=O)c1c[nH]c2ccc(CN3CCN(c4ccc(C(F)(F)F)cc4)CC3)cc2c1=O . Its measured chromatographic logD is 3.01

Consider COC(=O)c1c[nH]c2cc(CN3CCN(c4ccc(F)cc4)CC3)c(OC)cc2c1=O . Its measured chromatographic logD is 1.31

Consider COC(=O)c1c[nH]c2cc(CN3CCN(c4ccc(F)cc4)CC3)c(C)cc2c1=O . Its measured chromatographic logD is 2.9

Consider Cc1[nH]c2cc(CN3CCN(c4ccc(F)cc4)CC3)ccc2c(=O)c1Br . Its measured chromatographic logD is 2.83

Consider COC(=O)c1c[nH]c2cc(N3CCN(c4ccccc4)CC3)c(OC)cc2c1=O . Its measured chromatographic logD is 2.64

Consider O=c1c(Cl)c[nH]c2cc(CN3CCN(c4ccc(F)cc4)CC3)ccc12 . Its measured chromatographic logD is 2.57

Consider COC(=O)c1c[nH]c2cc(CN3CCN(c4ccc(F)cc4)CC3)ccc2c1=O . Its measured chromatographic logD is 2.38

Consider COC(=O)c1c[nH]c2cc(CN3CCN(c4ccc(C(F)(F)F)cc4)CC3)c(OC)cc2c1=O . Its measured chromatographic logD is 1.29

----------
assayName: lipophilicity log D at pH 7.4
Assay type: physicochemical
measurementSetup: octanol/water
The threshold is 2. Values of chromatographic logD beneath it are tagged Yes; values meeting or exceeding it are tagged No.

Query: chromatographic logD under 2? Item: COC(=O)c1c[nH]c2cc(CCN3CCN(Cc4ccc(OC)cc4)CC3)ccc2c1=O
Response: Yes

Query: chromatographic logD under 2? Item: COC(=O)c1c[nH]c2cc(N3CCN(c4ccccc4)CC3)c(C)cc2c1=O
Response: No

Query: chromatographic logD under 2? Item: COC(=O)c1c[nH]c2cc(CN3CCN(c4ccccc4)CC3)c(C)cc2c1=O
Response: No

Query: chromatographic logD under 2? Item: COC(=O)c1c[nH]c2cc(N3CCN(c4ccccc4)CC3)ccc2c1=O
Response: No

Query: chromatographic logD under 2? Item: COC(=O)c1c[nH]c2cc(CN3CCN(c4ccc(OC)cc4)CC3)c(C)cc2c1=O
Response: No

Query: chromatographic logD under 2? Item: COC(=O)c1c[nH]c2cc(CN3CCN(c4ccccc4)CC3)ccc2c1=O
Response: Yes

Query: chromatographic logD under 2? Item: COC(=O)c1c[nH]c2cc(N3CCN(Cc4ccccc4)CC3)c(C)cc2c1=O
Response: No

Query: chromatographic logD under 2? Item: COC(=O)c1c[nH]c2ccc(CN3CCN(c4ccc(F)cc4)CC3)cc2c1=O
Response: No

----------
I'd be grateful if you could share measured solubility for these entries.
assayName: aqueous solubility (LC/MS- or HPLC-based assay)
Assay type: physicochemical
measurementSetup: aqueous medium, pH 2, simulated gastric fluid, pH 2.0; read-out: Solubility pH 2.0

Consider COC(=O)c1c[nH]c2cc(N3CCN(c4ccccc4)CC3)ccc2c1=O . Its measured solubility is 1 to 19.9 µM

Consider COC(=O)c1c[nH]c2cc(N3CCN(Cc4ccccc4)CC3)ccc2c1=O . Its measured solubility is 60 to 80 µM

Consider COC(=O)c1c[nH]c2cc(CN3CCN(c4ccccc4)CC3)c(OC)cc2c1=O . Its measured solubility is ≥ 80 µM

Consider COC(=O)c1c[nH]c2cc(CCN3CCN(c4ccccc4)CC3)ccc2c1=O . Its measured solubility is ≥ 80 µM

Consider COC(=O)c1c[nH]c2cc(N3CCN(c4ccccc4)CC3)c(C)cc2c1=O . Its measured solubility is ≥ 80 µM

Consider COC(=O)c1c[nH]c2cc(CN3CCN(Cc4ccccc4)CC3)c(C)cc2c1=O . Its measured solubility is ≥ 80 µM

Consider COC(=O)c1c[nH]c2cc(CN3CCN(Cc4ccc(OC)cc4)CC3)ccc2c1=O . Its measured solubility is ≥ 80 µM

Consider COC(=O)c1c[nH]c2cc(N3CCN(c4ccccc4)CC3)c(OC)cc2c1=O . Its measured solubility is ≥ 80 µM

Consider COC(=O)c1c[nH]c2cc(N3CCN(Cc4ccccc4)CC3)c(OC)cc2c1=O . Its measured solubility is 60 to 79.9 µM

Consider COC(=O)c1c[nH]c2cc(N3CCN(Cc4ccc(OC)cc4)CC3)ccc2c1=O . Its measured solubility is ≥ 80 µM

Consider COC(=O)c1c[nH]c2cc(CN3CCN(c4ccccc4)CC3)ccc2c1=O . Its measured solubility is ≥ 80 µM

----------
assayName: aqueous solubility (LC/MS- or HPLC-based assay)
Format: physicochemical
measurementSetup: aqueous solution, pH 2, simulated gastric fluid, pH 2.0; read-out: Solubility pH 2.0
measurementLabel: solubility

Consider COC(=O)c1c[nH]c2cc(N3CCN(c4ccc(OC)cc4)CC3)c(OC)cc2c1=O [Compound 8f] . Its measured solubility is 60 to 79.9 µM

Consider COC(=O)c1c[nH]c2cc(CN3CCN(c4ccc(C(F)(F)F)cc4)CC3)c(C)cc2c1=O [Compound 8v] . Its measured solubility is ≥ 80 µM

Consider COC(=O)c1c[nH]c2cc(CN3CCN(c4ccc(F)cc4)CC3)c(OC)cc2c1=O [Compound 8aa] . Its measured solubility is 60 to 79.9 µM

Consider COC(=O)c1c[nH]c2cc(CN3CCN(c4ccc(OC)cc4)CC3)ccc2c1=O [Compound 8n] . Its measured solubility is ≥ 80 µM

Consider COC(=O)c1c[nH]c2cc(CN3CCN(c4ccc(C(F)(F)F)cc4)CC3)c(OC)cc2c1=O [Compound 8ab] . Its measured solubility is 1 to 19.9 µM

Consider COC(=O)c1c[nH]c2cc(CN3CCN(c4ccc(OC)cc4)CC3)c(C)cc2c1=O [Compound 8t] . Its measured solubility is ≥ 80 µM

Consider COC(=O)c1c[nH]c2cc(CN3CCN(c4ccc(F)cc4)CC3)c(C)cc2c1=O [Compound 8u] . Its measured solubility is ≥ 80 µM

Consider COC(=O)c1c[nH]c2cc(N3CCN(c4ccc(OC)cc4)CC3)ccc2c1=O [Compound 8e] . Its measured solubility is 40 to 59.9 µM

Consider COC(=O)c1c[nH]c2cc(CN3CCN(c4ccc(C(F)(F)F)cc4)CC3)ccc2c1=O [Compound 8p] . Its measured solubility is ≥ 80 µM

Consider COC(=O)c1c[nH]c2cc(CN3CCN(c4ccc(OC)cc4)CC3)c(OC)cc2c1=O [Compound 8z] . Its measured solubility is ≥ 80 µM

Consider COC(=O)c1c[nH]c2cc(CN3CCN(c4ccc(F)cc4)CC3)ccc2c1=O [Compound 8o] . Its measured solubility is ≥ 80 µM

----------
assayName: lipophilicity log D at pH 7.4
Format: physicochemical
measurementSetup: octanol/water
The threshold is 3. Values of chromatographic logD beneath it are tagged t; values meeting or exceeding it are tagged f.

Query: chromatographic logD under 3? Item: COC(=O)c1c[nH]c2cc(CN3CCN(Cc4ccccc4)CC3)ccc2c1=O
Response: t

Query: chromatographic logD under 3? Item: COC(=O)c1c[nH]c2cc(CN3CCN(c4ccc(C(F)(F)F)cc4)CC3)ccc2c1=O
Response: f

Query: chromatographic logD under 3? Item: COC(=O)c1c[nH]c2cc(CN3CCN(Cc4ccc(OC)cc4)CC3)ccc2c1=O
Response: t

Query: chromatographic logD under 3? Item: COC(=O)c1c[nH]c2cc(N3CCN(Cc4ccccc4)CC3)c(OC)cc2c1=O
Response: t

Query: chromatographic logD under 3? Item: COC(=O)c1c[nH]c2cc(N3CCN(Cc4ccccc4)CC3)ccc2c1=O
Response: t

Query: chromatographic logD under 3? Item: COC(=O)c1c[nH]c2cc(CCN3CCN(c4ccccc4)CC3)ccc2c1=O
Response: f

Query: chromatographic logD under 3? Item: Cc1[nH]c2cc(CN3CCN(c4ccc(F)cc4)CC3)ccc2c(=O)c1Cl
Response: t

Query: chromatographic logD under 3? Item: COC(=O)c1c[nH]c2cc(CCN3CCN(Cc4ccccc4)CC3)ccc2c1=O
Response: t

----------
I'd be grateful if you could share measured solubility for these entries.
assayName: aqueous solubility (LC/MS- or HPLC-based assay)
Assay type: physicochemical
measurementSetup: aqueous solution, pH 6.5, aqueous buffer, pH 6.5; read-out: Solubility pH 6.5

Consider COC(=O)c1c[nH]c2cc(CN3CCN(c4ccc(F)cc4)CC3)ccc2c1=O . Its measured solubility is ≥ 80 µM

Consider COC(=O)c1c[nH]c2cc(CN3CCN(c4ccc(C(F)(F)F)cc4)CC3)ccc2c1=O . Its measured solubility is 1 to 19.9 µM

Consider COC(=O)c1c[nH]c2cc(N3CCN(c4ccc(OC)cc4)CC3)ccc2c1=O . Its measured solubility is 20 to 39.9 µM

From: patent US10000452B1
